Hello, the source for this data is ChEMBL document CHEMBL4834402, in case you need it.

- subject-of-test: SUMO-activating enzyme (Homo sapiens)
- Sequence (Q9UBE0 whole entry): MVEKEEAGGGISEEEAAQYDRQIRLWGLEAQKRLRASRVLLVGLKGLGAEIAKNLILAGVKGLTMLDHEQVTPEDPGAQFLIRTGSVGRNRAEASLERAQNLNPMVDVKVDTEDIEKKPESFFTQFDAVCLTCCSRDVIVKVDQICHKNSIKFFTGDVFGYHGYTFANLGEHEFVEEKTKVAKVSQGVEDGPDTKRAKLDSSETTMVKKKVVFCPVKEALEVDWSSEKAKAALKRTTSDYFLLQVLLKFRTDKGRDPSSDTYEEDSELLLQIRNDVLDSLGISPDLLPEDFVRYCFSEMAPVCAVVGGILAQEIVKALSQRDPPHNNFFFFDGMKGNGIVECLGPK
- Sequence (Q9UBT2 whole entry): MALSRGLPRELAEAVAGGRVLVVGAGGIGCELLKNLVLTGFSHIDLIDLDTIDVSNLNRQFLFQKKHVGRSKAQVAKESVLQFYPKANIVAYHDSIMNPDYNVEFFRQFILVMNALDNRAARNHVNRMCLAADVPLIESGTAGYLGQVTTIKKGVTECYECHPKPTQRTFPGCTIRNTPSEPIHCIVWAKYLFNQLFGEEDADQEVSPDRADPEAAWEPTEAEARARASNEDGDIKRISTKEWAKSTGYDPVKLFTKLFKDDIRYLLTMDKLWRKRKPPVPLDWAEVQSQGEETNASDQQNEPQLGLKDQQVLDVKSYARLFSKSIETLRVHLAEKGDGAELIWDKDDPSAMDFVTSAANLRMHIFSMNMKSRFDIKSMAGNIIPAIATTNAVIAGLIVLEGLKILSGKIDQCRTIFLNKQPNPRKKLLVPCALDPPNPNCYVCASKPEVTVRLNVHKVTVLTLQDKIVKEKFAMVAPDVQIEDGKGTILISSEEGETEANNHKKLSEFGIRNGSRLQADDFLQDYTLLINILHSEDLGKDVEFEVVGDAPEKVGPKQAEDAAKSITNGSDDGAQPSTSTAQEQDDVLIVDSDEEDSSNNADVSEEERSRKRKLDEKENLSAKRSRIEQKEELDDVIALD
- assay-procedure: Inhibition of SAE in human HCT116 cells assessed as redistribution of SUMO2/3 proteins from nucleus to cytosol preincubated for 2 hrs followed by compound washout and measured after 8 hrs by immunofluorescence assay
- Type: cell-based, HCT-116
assay-readout: pIC50
Convention used: pIC50 is expressed as -log10 of the molar concentration.

1) NS(=O)(=O)OC[C@H]1C[C@@H](Nc2ncncc2C(=O)c2cc([C@@H]3OCCc4ccccc43)cs2)C[C@@H]1O = 7.41
2) NC(c1cccc(Cl)c1)c1csc(C(=O)c2cncnc2N[C@@H]2C[C@H](COS(N)(=O)=O)[C@@H](O)C2)c1 (stereo in doubt; 33) = 6.30
3) NS(=O)(=O)OC[C@H]1C[C@@H](Nc2ncncc2C(=O)c2cc(C(O)c3cccc(Cl)n3)c(Cl)s2)C[C@@H]1O (some centres not stated) = 6.85

Would you kindly share the measured pIC50 for NS(=O)(=O)OC[C@H]1C[C@@H](Nc2ncncc2C(=O)c2cc(C3OCCc4ccc(Cl)cc43)c(Cl)s2)C[C@@H]1O (some centres not stated) ? 7.85

Would you kindly share the measured pIC50 for Cc1sc(C(=O)c2cncnc2N[C@@H]2C[C@H](COS(N)(=O)=O)[C@@H](O)C2)cc1C1OCCc2cccnc21 (some centres not stated) ? 7.19

Would you kindly share the measured pIC50 for NS(=O)(=O)OC[C@H]1C[C@@H](Nc2ncncc2C(=O)c2cc(C3NCCc4ccc(Cl)cc43)c(Cl)s2)C[C@@H]1O (some centres not stated) ? 7.77

Would you kindly share the measured pIC50 for NS(=O)(=O)OC[C@H]1C[C@@H](Nc2ncncc2C(=O)c2cc(C3NCCc4ccccc43)cs2)C[C@@H]1O (some centres not stated) ? 6.30

====

- subject-of-test: NEDD8 activating enzyme (Homo sapiens)
- Sequence (Q8TBC4 whole entry): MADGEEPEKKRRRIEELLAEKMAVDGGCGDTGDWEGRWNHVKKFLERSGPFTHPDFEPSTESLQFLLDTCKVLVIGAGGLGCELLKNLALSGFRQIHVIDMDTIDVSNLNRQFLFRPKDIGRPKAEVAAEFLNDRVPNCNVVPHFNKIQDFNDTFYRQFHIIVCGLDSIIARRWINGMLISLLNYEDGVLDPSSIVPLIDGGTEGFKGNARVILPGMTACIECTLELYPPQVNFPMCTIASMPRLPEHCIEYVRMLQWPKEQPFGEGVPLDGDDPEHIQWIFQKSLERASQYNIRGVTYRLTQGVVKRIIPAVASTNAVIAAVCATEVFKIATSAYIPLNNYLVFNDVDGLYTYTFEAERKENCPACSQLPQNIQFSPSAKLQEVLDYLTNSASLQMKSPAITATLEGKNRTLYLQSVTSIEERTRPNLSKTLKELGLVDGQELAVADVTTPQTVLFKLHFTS
- Sequence (Q13564 whole entry, further chain): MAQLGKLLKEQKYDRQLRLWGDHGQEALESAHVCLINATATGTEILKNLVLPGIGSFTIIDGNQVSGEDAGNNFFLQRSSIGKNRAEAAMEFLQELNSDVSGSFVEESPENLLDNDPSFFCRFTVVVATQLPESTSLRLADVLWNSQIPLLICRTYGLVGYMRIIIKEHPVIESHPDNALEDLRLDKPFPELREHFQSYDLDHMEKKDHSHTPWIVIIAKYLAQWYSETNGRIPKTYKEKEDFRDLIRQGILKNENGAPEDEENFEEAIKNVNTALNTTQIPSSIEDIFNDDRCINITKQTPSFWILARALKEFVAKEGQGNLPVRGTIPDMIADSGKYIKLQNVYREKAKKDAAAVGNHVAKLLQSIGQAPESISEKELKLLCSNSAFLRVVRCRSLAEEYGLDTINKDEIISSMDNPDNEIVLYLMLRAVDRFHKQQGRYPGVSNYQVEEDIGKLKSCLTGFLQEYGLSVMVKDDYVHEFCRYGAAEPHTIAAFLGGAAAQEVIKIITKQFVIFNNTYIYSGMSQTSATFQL
- assay-procedure: Inhibition of recombinant NAE (unknown origin) in presence of ATP at Km concentration by HTRF assay
- Format: protein-complex assay
pIC50: −log10 of the molar value.
assay-readout: pIC50

1) NS(=O)(=O)OC[C@H]1C[C@@H](Nc2ncncc2C(=O)c2ccn(Cc3ccccc3)n2)[C@@H](O)[C@@H]1O = 6.13

P = CNC(c1cccc(Cl)c1)c1csc(C(=O)c2cncnc2N[C@@H]2C[C@H](COS(N)(=O)=O)[C@@H](O)C2)c1 (some centres undefined)
Q = NS(=O)(=O)OC[C@H]1C[C@@H](Nc2ncncc2C(=O)c2ccn(Cc3ccccc3)n2)[C@H](O)[C@@H]1O
Hello, I am sorting some records. Could you say if P or Q has the smaller pIC50 value? Please indicate the selected item by its label. P
(P: 6.02, Q: 7.54)

====

- subject-of-test: SUMO-activating enzyme (Homo sapiens)
- assay-procedure: Inhibition of recombinant SAE (unknown origin) assessed as reduction in transfer of SUMO1 to UBC9 using SUMO1 as a substrate in presence of ATP at Km concentration by HTRF assay
- Assay type: protein-complex assay
assay-readout: pIC50
Convention used: pIC50 is expressed as -log10 of the molar concentration.

1. NS(=O)(=O)OC[C@H]1C[C@@H](Nc2ncncc2C(=O)c2cc(C3NCc4ccc(Cl)cc43)cs2)C[C@@H]1O (stereo not given in full) = 8.80
2. C#Cc1cccc(Cn2ccc(C(=O)c3cncnc3N[C@@H]3C[C@H](COS(N)(=O)=O)[C@@H](O)C3)n2)c1 = 8.96
3. Cc1sc(C(=O)c2cncnc2N[C@@H]2C[C@H](COS(N)(=O)=O)[C@@H](O)C2)cc1C(N)c1cccc(Cl)c1 (stereo not given in full) = 9.70

Would you kindly share the measured pIC50 for NS(=O)(=O)OC[C@H]1C[C@@H](Nc2ncncc2C(=O)c2cc(C3OCCc4ccc(Cl)cc43)cs2)C[C@@H]1O (stereo not given in full) ? 9.30

Would you kindly share the measured pIC50 for `NS(=O)(=O)OC[C@H]1C[C@@H](Nc2ncncc2C(=O)c2ccn(-c3ccccc3)n2)C[C@@H]1O` ? 7.17

Would you kindly share the measured pIC50 for CC(O)(c1cccc(Cl)c1)c1csc(C(=O)c2cncnc2N[C@@H]2C[C@H](COS(N)(=O)=O)[C@@H](O)C2)c1 (stereo not given in full) ? 9.70

Would you kindly share the measured pIC50 for NS(=O)(=O)OC[C@H]1C[C@@H](Nc2ncncc2C(=O)c2cc(C3OCc4ccc(Cl)cc43)c(Cl)s2)C[C@@H]1O (stereo not given in full) ? 8.52

Would you kindly share the measured pIC50 for NS(=O)(=O)OC[C@H]1C[C@@H](Nc2ncncc2C(=O)c2cc(C(O)c3cccc(Cl)n3)c(Cl)s2)C[C@@H]1O (stereo not given in full) ? 9.70

Would you kindly share the measured pIC50 for `NS(=O)(=O)OC[C@H]1C[C@@H](Nc2ncncc2C(=O)c2ccn(Cc3ccccc3)n2)[C@@H](O)[C@@H]1O` ? 7.57

Would you kindly share the measured pIC50 for `NS(=O)(=O)OC[C@H]1C[C@@H](Nc2ncncc2C(=O)c2ccn(Cc3cccc(C(F)(F)F)c3)n2)C[C@@H]1O` ? 8.96
